- assay.system: mGluR5 receptor (pig) (Sus scrofa, UniProt I3LUI7)
- Construct: 450 μg of protein from brain homogenate are incubated; from tissue; host or cells: pig brain halves without medulla, cerebellum and pons (homogenate, differential centrifugation)
- Sequence (I3LUI7 19-1212): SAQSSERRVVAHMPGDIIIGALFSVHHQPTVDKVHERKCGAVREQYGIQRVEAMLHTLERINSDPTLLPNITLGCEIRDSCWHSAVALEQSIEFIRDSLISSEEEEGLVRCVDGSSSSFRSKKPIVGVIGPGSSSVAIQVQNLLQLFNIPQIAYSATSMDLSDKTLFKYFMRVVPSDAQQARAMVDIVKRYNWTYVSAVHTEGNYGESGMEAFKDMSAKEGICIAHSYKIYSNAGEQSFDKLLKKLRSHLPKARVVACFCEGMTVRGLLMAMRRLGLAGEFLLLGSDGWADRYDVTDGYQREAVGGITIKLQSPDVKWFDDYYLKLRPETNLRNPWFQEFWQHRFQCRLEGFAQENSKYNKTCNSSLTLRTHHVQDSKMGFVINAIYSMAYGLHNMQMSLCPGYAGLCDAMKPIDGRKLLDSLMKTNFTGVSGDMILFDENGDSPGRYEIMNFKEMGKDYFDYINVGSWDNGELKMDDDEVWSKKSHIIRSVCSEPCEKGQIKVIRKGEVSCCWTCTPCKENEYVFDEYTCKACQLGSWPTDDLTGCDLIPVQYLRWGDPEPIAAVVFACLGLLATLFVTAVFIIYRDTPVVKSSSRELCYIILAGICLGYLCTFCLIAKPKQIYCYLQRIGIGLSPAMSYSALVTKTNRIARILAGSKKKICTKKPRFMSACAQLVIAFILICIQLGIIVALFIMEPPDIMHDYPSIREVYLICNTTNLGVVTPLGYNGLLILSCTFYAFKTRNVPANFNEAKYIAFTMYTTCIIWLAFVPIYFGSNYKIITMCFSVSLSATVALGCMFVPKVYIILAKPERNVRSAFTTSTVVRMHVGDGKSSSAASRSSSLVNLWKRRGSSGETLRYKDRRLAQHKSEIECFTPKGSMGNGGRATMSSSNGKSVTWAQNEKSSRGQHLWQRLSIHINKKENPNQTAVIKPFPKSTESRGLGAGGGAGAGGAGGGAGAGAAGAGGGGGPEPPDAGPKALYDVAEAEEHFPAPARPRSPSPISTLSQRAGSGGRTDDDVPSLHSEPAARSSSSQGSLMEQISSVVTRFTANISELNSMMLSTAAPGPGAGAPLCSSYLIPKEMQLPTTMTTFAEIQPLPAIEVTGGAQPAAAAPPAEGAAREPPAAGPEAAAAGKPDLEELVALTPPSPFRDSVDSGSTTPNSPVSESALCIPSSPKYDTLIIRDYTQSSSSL
- assay.info: Inhibition of [3H]-MPEP binding in the mGluR5 receptor binding assay (pig brain homogenate)
- assay.context: 1 μM test compound, 5 nM [3H]-MPEP, 60 min, room temperature, read-out: % inhibition of mGluR5 receptor (pig) [3H]-MPEP bonding at 1 μM
Could you label it Condition met if measured inhibition at 1 µM is 30% or higher, and Condition not met otherwise?

Reference set (5 entries):
| substance.smiles | label |
| --- | --- |
| COc1cccc(C#CC(=O)NC2CCN(c3nc(C)cs3)CC2)c1 | Condition not met |
| Cc1csc(N2CCC(NC(=O)C#Cc3ccc(C)c(F)c3)CC2)n1 | Condition met |
| Cc1csc(N2CCC(NC(=O)C#Cc3ccccc3F)CC2)n1 | Condition not met |
| Cc1cccc(C#CC(=O)NC2CCN(c3nc(C)cs3)CC2)c1 | Condition met |
| Cc1csc(N2CCC(NC(=O)C#Cc3cccc(C(F)(F)F)c3)CC2)n1 | Condition met |

Now, please, on to the next compound.
[ask] API: above_or_equal(metric=inhibition at 1 µM, cutoff=30%) for item `Cc1csc(N2CCC(NC(=O)C#Cc3ccccc3)CC2)n1`
[reply] Condition met

----------
Would you mind telling me the reported IC50 of each entry?
- assay.system: mGluR5 receptor (pig) (Sus scrofa, UniProt I3LUI7)

Solved entries (count: 3):
| substance.smiles | result |
| --- | --- |
| CN(C(=O)C#Cc1ccccc1)C1CCN(c2nccs2)CC1 | 1000 nM |
| CN(c1nccs1)C1CCN(C(=O)C#Cc2ccccc2)CC1 | 4220 nM |
| CN(CCCN(C)c1nccs1)C(=O)C#Cc1ccccc1 | 990 nM |

Then this compound:
[ask] Quote IC50 reported for `O=C(C#Cc1ccccc1)N1CCC(Nc2nccs2)CC1` please.
[reply] 3040 nM

Values from patent US8318774B2
